assay: Luminescence activity assay of purified Gaussia luciferase mutants on coelenterazine; assay type: biochemical; parameters: key: ratio of mutant luminescence intensity to wild-type Gaussia luciferase; conditions: Substrate CTZ (Table 16)
As shown below, each of these molecules has a reported Activity of mutant relative to wild-type Gaussia luciferase without the signal peptide value.

Input line: Which Activity of mutant relative to wild-type Gaussia luciferase without the signal peptide reading was recorded for the molecule Q152H Q163D T167S S170N G174K A182L G183N: Gaussia luciferase mutant (protein, SIGNAL (1)..(17), Gaussia luciferase mutant) MGVKVLFALICIAVAEAKPTENNEDFNIVAVASNFATTDLDADRGKLPGKKLPLEVLKEMEANARKAGCTRGCLICLSHIKCTPKMKKFIPGRCHTYEGDKESAQGGIGEAIVDIPEIPGFKDLEPMEQFIAQVDLCVDCTTGCLKGLANVHCSDLLKKWLPDRCASFANKIQKQVDKIKGLNGD ?
Output line: 0.144

Input line: For F26I N27D V29S A30G V31L A32V S33D A36V T37E L40G: Gaussia luciferase mutant (protein, SIGNAL (1)..(17), Gaussia luciferase mutant) MGVKVLFALICIAVAEAKPTENNEDIDISGLVDNFVETDGDADRGKLPGKKLPLEVLKEMEANARKAGCTRGCLICLSHIKCTPKMKKFIPGRCHTYEGDKESAQGGIGEAIVDIPEIPGFKDLEPMEQFIAQVDLCVDCTTGCLKGLANVQCSDLLKKWLPQRCATFASKIQGQVDKIKGAGGD , what is its reported Activity of mutant relative to wild-type Gaussia luciferase without the signal peptide?
Output line: 0.788
